# experiment summary: Hepatotoxicity against human HepG2 cells assessed as cell viability at 25 uM after 24 hrs by MTT assay relative to control
# Type: toxicity, cell-based
# experimental parameters: read-out: Activity
experimental endpoint: viability at 24 h, 25 µM (%)

>>> print(df.to_string())
                                   compound     experimental_endpoint  measured_result
0   CC(C)C(CO)NC(=O)/C=C/c1ccccc1 (racemic)  viability at 24 h, 25 µM             95.7
1       CC(CO)NC(=O)/C=C/c1ccccc1 (racemic)  viability at 24 h, 25 µM             96.6
2      CCC(O)CNC(=O)/C=C/c1ccccc1 (racemic)  viability at 24 h, 25 µM             91.2
3  COc1cccc2c1C(=O)c1c(O)c3c(c(O)c1C2=O)C[C@@](O)(C(=O)CO)C[C@@H]3O[C@H]1C[C@H](N)[C@H](O)[C@H](C)O1  viability at 24 h, 25 µM             65.3
4       CC(O)CNC(=O)/C=C/c1ccccc1 (racemic)  viability at 24 h, 25 µM             92.5

Numbers sourced from ChEMBL document CHEMBL3739352.
